All figures here come from patent US7473790B2.

Known IC50 of a selection of compounds
Target: HCV polymerase (Hepatitis C virus genotype 1b, UniProt P26663)
Construct: 2.5 pmoles (0.15 μg) HCV polymerase protein in a final volume of 75 μL
Sequence (P26663 2420-3010): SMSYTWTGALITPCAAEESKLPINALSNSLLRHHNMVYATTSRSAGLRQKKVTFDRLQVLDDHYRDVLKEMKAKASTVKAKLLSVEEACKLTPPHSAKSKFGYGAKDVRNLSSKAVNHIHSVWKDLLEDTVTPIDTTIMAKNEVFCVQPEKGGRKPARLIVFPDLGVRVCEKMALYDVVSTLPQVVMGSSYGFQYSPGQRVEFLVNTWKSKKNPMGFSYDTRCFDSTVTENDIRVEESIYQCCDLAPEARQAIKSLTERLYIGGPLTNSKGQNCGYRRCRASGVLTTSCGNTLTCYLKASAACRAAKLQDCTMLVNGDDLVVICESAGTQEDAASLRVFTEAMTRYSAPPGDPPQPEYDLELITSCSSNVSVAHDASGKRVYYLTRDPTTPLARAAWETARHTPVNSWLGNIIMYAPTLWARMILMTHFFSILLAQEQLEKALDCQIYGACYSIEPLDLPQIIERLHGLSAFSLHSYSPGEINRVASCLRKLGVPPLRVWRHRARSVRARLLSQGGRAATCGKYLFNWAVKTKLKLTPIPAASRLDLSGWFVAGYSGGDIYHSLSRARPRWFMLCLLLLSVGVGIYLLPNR
Experiment: HCV polymerase primer/template-directed transcription assay (32P-GTP incorporation, filter binding)
Type: biochemical
Conditions: recombinant HCV polymerase; 30 minutes at 30° C.; concentration giving 50% inhibition of polymerase-directed transcription; read-out: IC50
Enter your answer as a number in nM; do not include the unit.

COc1cc(OC)c(CCC2(C3CCCC3)CC(O)=C(Sc3nnc(-c4cccnc4)[nH]3)C(=O)O2)cc1Cl (stereo not shown) : 44

Prompt: For the compound CCc1cccc(CCC2(C3CCCC3)CC(=O)CC(=O)O2)c1 (single isomer, unassigned) [J(5)] , what IC50 is on record?
Completion: 1900

Prompt: For the compound Cc1csc2nc(CC3=C(O)CC(CCc4ccc(OCC5CC5)c(Cl)c4)(C4CCCC4)OC3=O)cc(=O)n12 (stereo not shown) , what IC50 is on record?
Completion: 6200

Prompt: For the compound CCc1cc(CCC2(C3CCCC3)CC(O)=C(Cc3nc4nc(C)cc(C)n4n3)C(=O)O2)ccc1Cl (stereo not shown) , what IC50 is on record?
Completion: 19

----------
Molecular target: HCV polymerase (Hepatitis C virus genotype 1b, UniProt P26663)
Construct: 2.5 pmoles (0.15 μg) HCV polymerase protein in a final volume of 75 μL
Assay: HCV polymerase primer/template-directed transcription assay (32P-GTP incorporation, filter binding)
Format: biochemical
Settings: recombinant HCV polymerase; 30 minutes at 30° C.; concentration giving 50% inhibition of polymerase-directed transcription; read-out: IC50
quantityKind: pIC50
Worth noting: pIC50 values are minus log10 of concentrations stated in mol/L.

Consider the following illustrative entries.
COc1ccc(CCC2(C3CCCC3)CC(O)=C(Sc3nc4ccccc4s3)C(=O)O2)cc1Cl (stereo not shown) : 5.49
CC(C)Oc1ccc(CCC2(C3CCCC3)CC(O)=C(Sc3ncccn3)C(=O)O2)cc1F (stereo not shown) : 6.72
CCc1cc(CCC2(C3CCCC3)CC(O)=C(Cc3nc4nc(C)cc(C)n4n3)C(=O)O2)cc(Cl)c1OC (stereo not shown) : 8.05

Next compound, pIC50 to be filled in.
Prompt: For the compound COc1ccc(CCC2(C3CCCC3)CC(O)=C(Sc3nnc(C)n3C)C(=O)O2)cc1Cl (stereo not shown) , what pIC50 is on record?
Completion: 7.10

----------
Known IC50 of a selection of compounds
Biological target: HCV polymerase (Hepatitis C virus genotype 1b, UniProt P26663)
Construct: 2.5 pmoles (0.15 μg) HCV polymerase protein in a final volume of 75 μL
Assay: HCV polymerase primer/template-directed transcription assay (32P-GTP incorporation, filter binding)
Assay type: biochemical
Conditions: recombinant HCV polymerase; 30 minutes at 30° C.; concentration giving 50% inhibition of polymerase-directed transcription; read-out: IC50
Experimental: The compounds described herein were tested for activity with HCV polymerase. […] The filters were counted in a Packard Tri-Lux Microbeta scintillation counter (Packard Bioscience, Meriden, Conn.). […]
Include the unit after the number when you answer.

COc1ccc(CCC2(C3CCCC3)CC(=O)CC(=O)O2)cc1[C@@H](C)O (some centres unmarked) : 6000 nM
N#CCC(=O)c1ccc(CCC2(C3CCCC3)CC(=O)CC(=O)O2)cc1 (centres unmarked) : 7100 nM
N#CC1(c2ccc(CCC3(C4CCCC4)CC(O)=C(Cc4nc5ncccn5n4)C(=O)O3)cc2F)CCC1 (centres unmarked) : 10 nM

Prompt: For the compound CCn1nnnc1SC1=C(O)CC(CCc2ccc(OC)c(Cl)c2)(C2CCCC2)OC1=O (centres unmarked) , what IC50 is on record?
Completion: 220 nM
